# Tested on: K-562 leukemia
# Method: NCI-60 one-dose screen, 48 h (100 = growth as untreated, 0 = no growth, -100 = all killed)
# Assay Conditions: 10 µM unless noted
# Experimental: Cells are grown in 96 well plates and exposed to the test compound for 48 hours. Compounds are tested at a single concentration, which is 10^-5 M for most compounds. The reported endpoint is percent growth (GI% or GIPRCNT), where numbers from 0 - 100% represent growth inhibition, and numbers from -100% - 0 represent cell death. For example, a value of 40 represents 60% growth inhibition. A value of 0 means no net growth occurred over the course of the experiment. […]
This is part of a sample that, as a whole, favours compounds with a hit. Of some 83,000 tested, about 20% had one in any assay. Activity calls are given as the source filed them. The calls were made as follows: active = growth percent below 10; inactive = the rest.

[
  {
    "Substance Smiles": "CC1(C)N=C(N)N=C(N)N1c1ccc(Cl)c(Cl)c1",
    "growth": "23.6% (inactive)"
  },
  {
    "Substance Smiles": "C#CC[C@H](N)C(=O)O",
    "growth": "96.8% [20 µM] (inactive)"
  },
  {
    "Substance Smiles": "COc1ccc(N=c2nc3sc4cc(Cl)ccc4n3c(N)c2C#N)cc1",
    "growth": "98.9% (inactive)"
  }
]

###

# Test system: TK-10 renal
# Method: NCI-60 one-dose screen, 48 h (100 = growth as untreated, 0 = no growth, -100 = all killed)
# Assay Conditions: 10 µM unless noted
This is part of a sample that, as a whole, favours compounds with a hit. Of some 83,000 tested, about 20% had one in any assay.
Would you please tag the item TRUE when its growth is 80% or above, and FALSE when it is below?

[
  {
    "Compound": "CCN(CC)CCCC(C)NCc1ccccc1 (stereo not given)",
    "Class": "TRUE"
  },
  {
    "Compound": "CN1CCN(CCCOc2ccc3nc(Nc4cc(Cl)cc(Cl)c4)ccc3c2)CC1",
    "Class": "FALSE"
  },
  {
    "Compound": "COc1cc2c(cc1OC)-c1ccc3cc4c(cc3c1N(CCCn1ccnc1)C2)OCO4",
    "Class": "TRUE"
  },
  {
    "Compound": "CCN1CCN(c2ccc(Nc3cc(-c4cccnc4Nc4c(Cl)c(OC)cc(OC)c4Cl)ncn3)cc2)CC1",
    "Class": "FALSE"
  },
  {
    "Compound": "Nc1ccn(C2OC(F)(CO)C(O)C2F)c(=O)n1 (stereo not given)",
    "Class": "FALSE"
  },
  {
    "Compound": "CCc1c(C(=O)N[C@@H]2c3cc(Cl)ccc3CC[C@@H]2O)[nH]c(C)c1C(C)=O",
    "Class": "TRUE"
  },
  {
    "Compound": "Cc1ccc(O)c(C(=O)c2ccccc2Cl)c1",
    "Class": "TRUE"
  },
  {
    "Compound": "N#Cc1c(NC(=O)c2cccc(C(F)(F)F)c2)sc2c1CCC(=O)C2",
    "Class": "FALSE"
  },
  {
    "Compound": "CC(/C=N/NC(=O)c1cc(-c2ccco2)[nH]n1)=C\\c1ccccc1",
    "Class": "TRUE"
  },
  {
    "Compound": "O=c1ccn(C2OC(F)(CO)C(O)C2F)c(=O)[nH]1 (stereo not given)",
    "Class": "TRUE"
  },
  {
    "Compound": "O=C1Nc2ccccc2SC1c1ccccc1Cl (stereo not given)",
    "Class": "TRUE"
  },
  {
    "Compound": "CCCCN1CCN(c2ccc3nc(-c4ccc5nc(-c6cc(OC)c(OC)c(OC)c6)[nH]c5c4)[nH]c3c2)CC1",
    "Class": "TRUE"
  },
  {
    "Compound": "O=C(Nc1ccccc1Cl)OCCN1CCOCC1",
    "Class": "TRUE"
  },
  {
    "Compound": "Cc1ccc(/C(=N\\N=C(N)N)c2ccccc2)cc1",
    "Class": "FALSE"
  },
  {
    "Compound": "CCCCCCCCCCCCCCCCCC1=NCCN1C(=O)OCCO",
    "Class": "FALSE"
  },
  {
    "Compound": "CN1CCN(c2ccc3nc(/N=C/c4ccc5sc(-c6ccc([N+](=O)[O-])cc6)nc5c4)sc3c2)CC1",
    "Class": "TRUE"
  },
  {
    "Compound": "COC(=O)c1ccc(CSc2nnc(-c3ccncc3)o2)cc1",
    "Class": "TRUE"
  },
  {
    "Compound": "C=CC(=O)N[C@@H](Cc1ccc(-c2cc(Cl)cc(Cl)c2)cc1)[C@@H](O)[C@H](O)C(=O)O",
    "Class": "TRUE"
  },
  {
    "Compound": "CCOC(=O)c1ccc(NC(=O)CCCN(CC)CC)cc1",
    "Class": "TRUE"
  }
]
